The measurements presented in this section are drawn from ChEMBL document CHEMBL5137029.

Assay: Selectivity index, ratio of IC50 for cytotoxicity against human MRC5 cells to MIC for antibacterial activity against Staphylococcus aureus
Format: toxicity, cell-based
Settings: read-out: Selectivity Index
propertyLabel: selectivity ratio

Given `CC(C)(C)[Si](C)(C)Oc1ccc(/C=C/c2cc(O)cc(O)c2)cc1` , state its recorded selectivity ratio.
2

---

Test: Selectivity index, ratio of IC50 for cytotoxicity against human MRC5 cells to MIC for antibacterial activity against Enterococcus faecalis
Format: toxicity, cell-based
Conditions: read-out: Selectivity Index
propertyLabel: selectivity ratio

Given `CC(C)(C)[Si](C)(C)Oc1ccc(/C=C/c2cc(O)cc(O)c2)cc1` , state its recorded selectivity ratio.
2

---

Experiment: Hemolytic activity in human erythrocytes at […] incubated for 1 hrs
Assay type: toxicity, cell-based, Erythrocyte
Settings: erythrocytes, read-out: Activity
propertyLabel: hemolysis at 1 h, […] (%)
The reply should be a number in %, with the unit left off.

1. CC(C)(C)[Si](C)(C)Oc1ccc(/C=C/c2cc(O)cc(O)c2)cc1 12.7

Given `CC(C)(C)[Si](C)(C)Oc1cc(O)cc(/C=C/c2ccc(O)cc2)c1` , state its recorded hemolysis at 1 h, […].
18.4
